# Tested on: UO-31
# PROTOCOL_SUMMARY: NCI tumour cell line growth inhibition, 48 h
Calls of active or inactive are those of the source. No stated cut-off is given here; in the data, active = GI50 up to about 1.1 µM and inactive = higher.
QUANTITY_KIND: GI50

[[record]]
compound = "Cc1cccc2c(N)c3cccc(C(=O)NCC[N+](C)(C)Cc4sccc4[N+](=O)[O-])c3nc12"
quantity_kind = "GI50"
result = "20.5 µM (inactive)"

[[record]]
compound = "N#CC(NCc1cccc(CNC(C#N)c2ccccc2)c1)c1ccccc1 (stereo unspecified)"
quantity_kind = "GI50"
result = "94.4 µM (inactive)"

[[record]]
compound = "C#CCN(CC#C)C(=O)C(=O)c1c[nH]c2ccc(OC)cc12"
quantity_kind = "GI50"
result = "8.11 µM (inactive)"

[[record]]
compound = "N#C/C(=C\\c1ccc(O)cc1O)C(N)=O"
quantity_kind = "GI50"
result = "33.6 µM (inactive)"

[[record]]
compound = "Cc1cccc2c1Sc1ccccc1C2NC(=O)CCN(C)C (stereo unspecified)"
quantity_kind = "GI50"
result = "> 100 µM (inactive)"

[[record]]
compound = "COC(=O)c1sc(=NC(=S)N2CCCCC2)sc1C(=O)OC"
quantity_kind = "GI50"
result = "98.4 µM (inactive)"

[[record]]
compound = "C[C@H](C/C=C/C(C)(C)O)[C@H]1CC[C@@]2(C)[C@@H]3CC[C@H]4C(C)(C)[C@@H](O)CC[C@@]45C[C@@]35CC[C@]12C"
quantity_kind = "GI50"
result = "23.3 µM (inactive)"

[[record]]
compound = "C=CCC1(O)c2ccccc2C(=O)c2c(O)ccc(O)c21 (stereo unspecified)"
quantity_kind = "GI50"
result = "16.8 µM (inactive)"

[[record]]
compound = "c1ccc2c(c1)cc1n2CC2CN=NC12 (stereo unspecified)"
quantity_kind = "GI50"
result = "> 100 µM (inactive)"

[[record]]
compound = "Cc1sc(N)c(S(=O)(=O)c2ccccc2)c1C"
quantity_kind = "GI50"
result = "> 100 µM (inactive)"

[[record]]
compound = "Cc1nc2c(c(N3CCN(C)CC3)n1)Cc1ccccc1-2"
quantity_kind = "GI50"
result = "15 µM (inactive)"


----------
# Tested on: RPMI-8226
# PROTOCOL_SUMMARY: NCI tumour cell line growth inhibition, 48 h
Active and inactive are the calls of the source. Cut-off read from the data, not from the text of the source: active = GI50 up to about 1.1 µM and inactive = higher.
Possible outcomes: yes (1) for active, no (0) for inactive

[[record]]
molecule = "Cc1ccc(C2(C)NC(=S)N(NC(N)=S)C2=S)cc1 (configuration not stated)"
qualitative_label = "no (0)"

[[record]]
molecule = "Cc1nc(C)c(N2CCN(C#N)CC2)c(O)n1"
qualitative_label = "no (0)"

[[record]]
molecule = "COC1=CC(=O)c2ccccc2C1(C)C1=NC(C)(C)CO1 (configuration not stated)"
qualitative_label = "no (0)"

[[record]]
molecule = "C#CCn1c(=O)c(C)cn(/C(=C\\C(=O)OCC)C(=O)OCC)c1=O"
qualitative_label = "no (0)"

[[record]]
molecule = "CNC(=O)OCc1c2ccncc2c(C)c2c1[nH]c1ccccc12"
qualitative_label = "yes (1)"

[[record]]
molecule = "CCCCCCCCNC(=O)SCCCC"
qualitative_label = "no (0)"

[[record]]
molecule = "Cc1cc(S(=O)(=O)N/C(=N/N)NCCc2ccccc2)c(S)cc1Cl"
qualitative_label = "no (0)"

[[record]]
molecule = "CCCCN1/C(=N/Nc2n[nH]c(=O)c3ccccc23)SCC1c1ccc(Cl)cc1 (configuration not stated)"
qualitative_label = "no (0)"

[[record]]
molecule = "Cc1nn(-c2ccccc2)c(C)c1/C=N/N=C1\\SCC(=O)N1c1ccccc1"
qualitative_label = "no (0)"

[[record]]
molecule = "O=C(CCC(=O)Nc1ccccc1C(F)(F)F)N/N=C1\\C(=N\\NC(=O)CCC(=O)Nc2ccccc2C(F)(F)F)C(c2ccc3c(c2)OCO3)Oc2ccccc21 (configuration not stated)"
qualitative_label = "no (0)"

[[record]]
molecule = "Cc1ccc(S(=O)(=O)N2CCCN(S(=O)(=O)c3ccc(C)cc3)CCN(S(=O)(=O)c3ccc(C)cc3)CCCSCC2)cc1"
qualitative_label = "no (0)"

[[record]]
molecule = "N#C/N=C(/N)NCN/C(N)=N\\C#N"
qualitative_label = "no (0)"

[[record]]
molecule = "O=NN(CCCl)C(=O)NC1CCSc2ccccc21 (configuration not stated)"
qualitative_label = "no (0)"

[[record]]
molecule = "Nc1nc(N)c2c(Cl)c(CNc3ccc(Cl)c(Cl)c3)ccc2n1"
qualitative_label = "yes (1)"

[[record]]
molecule = "O=c1n(/N=C/c2ccccc2)c(=O)n2n1C1C=CC2CC1"
qualitative_label = "no (0)"

[[record]]
molecule = "Cc1csc2nc(-c3ccc([N+](=O)[O-])cc3)c(/C=N/N=C(N)N)n12"
qualitative_label = "no (0)"

[[record]]
molecule = "COC(=O)c1sc(=NC(=S)N2CCCCC2)sc1C(=O)OC"
qualitative_label = "no (0)"

[[record]]
molecule = "O=C(O)C(O)C(O)C(O)C(O)CO.[Ba+2] (configuration not stated)"
qualitative_label = "no (0)"

[[record]]
molecule = "CN1CCC(n2[nH]c(-c3ccccc3)c(Cc3ccccc3)c2=O)CC1"
qualitative_label = "no (0)"

[[record]]
molecule = "Nc1nc(SCCC/C=C/I)nc2c1ncn2C1OC(CO)C(O)C1O (configuration not stated)"
qualitative_label = "no (0)"

[[record]]
molecule = "O=C1OC(=O)c2c1c(-c1ccccc1)nc1ccccc21"
qualitative_label = "no (0)"

[[record]]
molecule = "CC(NC(=O)C(N)CC(=O)O)NC(=O)N(C)C(C)(C)C (configuration not stated)"
qualitative_label = "no (0)"

